B1: TRIM14 (parent)
chain: YARTPTLDPDTMHARLRLSADRLT

variants of: B1; test: protein stability index of a GFP-peptide fusion (GPS, HEK-293T) (PSI 1-6); higher = more stable; settings: c terminus: a fixed tail appended;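 also: lentivirally expressed fusions sorted by FACS into six bins by GFP to DsRed ratio, PSI derived from sequencing read proportions per bin multiplied by bin number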
Exercise: for every item that follows, state its recorded protein stability index.

**Q:** Given the entry "R17M" , report its measured protein stability index.
**A:** 2.42

**Q:** Given the entry "Y1W" , report its measured protein stability index.
**A:** 2.91

**Q:** Given the entry "P9Q" , report its measured protein stability index.
**A:** 2.56

**Q:** Given the entry "R15I" , report its measured protein stability index.
**A:** 2.87

**Q:** Given the entry "R15T" , report its measured protein stability index.
**A:** 3.03

**Q:** Given the entry "A20F" , report its measured protein stability index.
**A:** 1.61

**Q:** Given the entry "A20Q" , report its measured protein stability index.
**A:** 1.84

**Q:** Given the entry "L16F" , report its measured protein stability index.
**A:** 2.84

**Q:** Given the entry "P5E" , report its measured protein stability index.
**A:** 2.62

**Q:** Given the entry "R22A" , report its measured protein stability index.
**A:** 2.57

**Q:** Given the entry "R15Y" , report its measured protein stability index.
**A:** 2.26

**Q:** Given the entry "Y1H" , report its measured protein stability index.
**A:** 4.06

**Q:** Given the entry "L23W" , report its measured protein stability index.
**A:** 2.03

**Q:** Given the entry "T4D" , report its measured protein stability index.
**A:** 2.6

**Q:** Given the entry "Y1M" , report its measured protein stability index.
**A:** 3.71

**Q:** Given the entry "Y1I" , report its measured protein stability index.
**A:** 2.71

**Q:** Given the entry "T4N" , report its measured protein stability index.
**A:** 3.1

**Q:** Given the entry "A20R" , report its measured protein stability index.
**A:** 1.49

**Q:** Given the entry "T11D" , report its measured protein stability index.
**A:** 3.07

**Q:** Given the entry "D21H" , report its measured protein stability index.
**A:** 3.32

**Q:** Given the entry "A14Y" , report its measured protein stability index.
**A:** 1.98

**Q:** Given the entry "L23T" , report its measured protein stability index.
**A:** 2.55

The reported numbers originate from the supplement of paper PMC10567573.
